List of DC50 values.
- experimental_system: SMARCA2 (Homo sapiens, UniProt P51531)
- Sequence (P51531 whole entry): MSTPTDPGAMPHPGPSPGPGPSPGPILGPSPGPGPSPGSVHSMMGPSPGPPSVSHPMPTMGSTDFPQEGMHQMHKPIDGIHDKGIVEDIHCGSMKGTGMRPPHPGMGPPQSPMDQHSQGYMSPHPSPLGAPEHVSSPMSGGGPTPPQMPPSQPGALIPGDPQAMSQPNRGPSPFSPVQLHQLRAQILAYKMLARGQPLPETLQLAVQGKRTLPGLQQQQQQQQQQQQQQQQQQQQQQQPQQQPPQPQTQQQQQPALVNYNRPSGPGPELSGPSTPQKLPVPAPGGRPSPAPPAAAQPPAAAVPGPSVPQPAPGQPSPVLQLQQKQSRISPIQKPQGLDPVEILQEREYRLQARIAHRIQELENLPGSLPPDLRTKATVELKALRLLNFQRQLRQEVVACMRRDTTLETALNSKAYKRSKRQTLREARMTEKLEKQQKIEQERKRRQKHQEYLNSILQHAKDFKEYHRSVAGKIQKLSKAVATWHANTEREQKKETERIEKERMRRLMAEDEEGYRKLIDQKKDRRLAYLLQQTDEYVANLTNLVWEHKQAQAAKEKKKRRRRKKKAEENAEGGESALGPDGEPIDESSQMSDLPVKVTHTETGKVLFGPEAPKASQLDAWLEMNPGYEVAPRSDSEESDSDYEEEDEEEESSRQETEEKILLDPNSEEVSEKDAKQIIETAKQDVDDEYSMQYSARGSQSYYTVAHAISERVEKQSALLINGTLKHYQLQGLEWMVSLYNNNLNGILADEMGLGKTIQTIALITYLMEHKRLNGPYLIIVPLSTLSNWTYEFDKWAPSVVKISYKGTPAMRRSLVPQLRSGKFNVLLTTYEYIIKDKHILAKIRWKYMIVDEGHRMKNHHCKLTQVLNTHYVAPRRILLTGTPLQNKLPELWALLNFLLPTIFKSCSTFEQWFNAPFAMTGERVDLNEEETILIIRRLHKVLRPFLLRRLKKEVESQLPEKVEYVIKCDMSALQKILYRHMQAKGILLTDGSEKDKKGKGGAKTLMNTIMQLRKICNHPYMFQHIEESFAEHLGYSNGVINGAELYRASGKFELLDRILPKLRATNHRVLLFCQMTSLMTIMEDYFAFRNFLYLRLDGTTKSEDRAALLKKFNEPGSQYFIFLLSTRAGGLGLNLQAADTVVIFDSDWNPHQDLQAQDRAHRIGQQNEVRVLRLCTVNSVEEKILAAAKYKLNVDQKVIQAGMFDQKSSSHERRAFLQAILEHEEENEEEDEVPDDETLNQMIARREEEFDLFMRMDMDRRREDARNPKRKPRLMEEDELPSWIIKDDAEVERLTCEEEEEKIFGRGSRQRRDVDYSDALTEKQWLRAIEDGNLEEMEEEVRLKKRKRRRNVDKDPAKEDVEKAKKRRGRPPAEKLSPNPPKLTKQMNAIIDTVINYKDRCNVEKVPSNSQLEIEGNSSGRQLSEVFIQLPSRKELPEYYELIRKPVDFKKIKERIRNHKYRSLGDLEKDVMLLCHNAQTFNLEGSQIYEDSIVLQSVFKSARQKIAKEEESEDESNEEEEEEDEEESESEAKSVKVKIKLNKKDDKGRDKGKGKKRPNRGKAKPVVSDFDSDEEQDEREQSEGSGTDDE
- assay_explanation: MSD SMARCA2 degradation in A549 cell line
- Assay type: cell-based
- test_parameters: A549 cells, 24 h, read-out: SMARCA2 MSD A549 degradation 24 h: Average external-Abs DC50

These recorded examples may help you get a feel for the data.
C#Cc1ccc(CNC(=O)[C@@H]2C[C@@H](O)CN2C(=O)[C@@H](NC(=O)[C@H]2CCC3(CC2)C[C@H](N2CCC(c4cnc(N5CCN6c7cc(-c8ccccc8O)nnc7NC[C@H]6C5)nc4)CC2)C3)C(C)(C)C)c(OC)c1 (single isomer, unassigned) [I-100]; < 0.01 µM
Cc1ncsc1-c1ccc(CNC(=O)[C@@H]2C[C@@H](O)CN2C(=O)[C@@H](NC(=O)C2(F)CC2)C(C)(C)C)c(O[C@H]2CC[C@H](N3CCC(N4CCC(c5cnc(N6CCc7[nH]c8nnc(-c9ccccc9O)cc8c7[C@@H]6C)nc5)CC4)CC3)CC2)c1 (single isomer, unassigned) [I-47]; > 0.1 µM
C#Cc1ccc([C@H](C)NC(=O)[C@@H]2C[C@@H](O)CN2C(=O)[C@@H](OC(=O)N2CC3(CC(N4CCC(c5cnc(N6CCc7[nH]c8nnc(-c9ccccc9O)cc8c7[C@H]6C)nc5)CC4)C3)C2)C(C)(C)C)cc1 [I-150]; 0.01 to 0.05 µM
C#Cc1ccc(CNC(=O)[C@@H]2C[C@@H](O)CN2C(=O)[C@@H](N(C)C(=O)N2CC3(CC(N4CCC(c5cnc(N6CCc7[nH]c8nnc(-c9ccccc9O)cc8c7[C@H]6C)nc5)CC4)C3)C2)C(C)(C)C)cc1 [I-139]; > 0.1 µM
C#Cc1ccc(CNC(=O)[C@@H]2C[C@@H](O)CN2C(=O)[C@@H](NC(=O)[C@H]2CCC3(CC2)C[C@H](N2CCC(c4cnc(N5CCN6c7cc(-c8cccc(F)c8O)nnc7NC[C@H]6C5)nc4)CC2)C3)C(C)(C)C)cc1 (single isomer, unassigned) [I-157]; 0.05 to 0.1 µM
Cc1ncsc1-c1ccc(CNC(=O)[C@@H]2C[C@@H](O)CN2C(=O)[C@@H](NC(=O)[C@H]2CC3(C2)C[C@H](N2CCC(c4ccnc(N5CCN6c7cc(-c8ccccc8O)nnc7NC[C@H]6C5)n4)CC2)C3)C(C)(C)C)cc1 (single isomer, unassigned) [I-5]; 0.01 to 0.05 µM

Measured on SMARCA2 (Homo sapiens, UniProt P51531), C#Cc1ccc(CNC(=O)[C@@H]2C[C@@H](O)CN2C(=O)[C@@H](NC(=O)C2CCN(C[C@H]3CC[C@H](N4CCc5[nH]c6nnc(-c7ccccc7O)cc6c5[C@H]4C)CC3)CC2)C(C)(C)C)cc1 (single isomer, unassigned) [I-202] has a documented DC50 of > 0.1 µM

Measured on SMARCA2 (Homo sapiens, UniProt P51531), C#Cc1ccc(CNC(=O)[C@@H]2C[C@@H](O)CN2C(=O)[C@@H](NC(=O)[C@H]2CC3(C2)C[C@H](N2CCC(N4CCC(N5CCN6c7cc(-c8ccccc8O)nnc7NC[C@H]6C5)CC4)CC2)C3)C(C)(C)C)c(Cl)c1 (single isomer, unassigned) [I-230] has a documented DC50 of 0.01 to 0.05 µM

Values from patent US20250170248A1
